test system: NCI-H322M lung; test: NCI-60 one-dose screen, 48 h (100 = growth as untreated, 0 = no growth, -100 = all killed); conditions: 10 µM unless noted
The panel holds about 83,000 compounds, 20% with a hit somewhere; the sample as a whole holds those more often.
Each entry gets class 0 if its growth stays under 90%, and class 1 if its growth is 90% or above.

Prompt: Record "COC(=O)CCCCCCN=Cc1c(O)c(O)c(C(C)C)c2cc(C)c(-c3c(C)cc4c(C(C)C)c(O)c(O)c(C=NCCCCCCC(=O)OC)c4c3O)c(O)c12" ; criterion: growth no lower than 90%. Met?
Completion: class 0

Prompt: Record "Nc1ccccc1C#C/C=C\C#Cc1cccc(O)c1" ; criterion: growth no lower than 90%. Met?
Completion: class 1

----------
system: OVCAR-5 ovarian; experiment: NCI-60 one-dose screen, 48 h (100 = growth as untreated, 0 = no growth, -100 = all killed); settings: 10 µM unless noted
The panel holds about 83,000 compounds, 20% with a hit somewhere; the sample as a whole holds those more often. Activity calls are given as the source filed them. How the source made its calls: active means growth percent below 10; inactive means the rest.
For each of the compounds below, state its growth.

Known results for compounds:
| compound | target.desc | reported |
| --- | --- | --- |
| CC(C)C[C@H](NC(=O)[C@@H](Cc1ccccc1)n1ccc(Nc2ccccc2)cc1=O)B(O)O | OVCAR-5 ovarian | 16% (inactive) |
| Cc1ccc(OCCn2c(C)nn(-c3ccc(Cl)cc3)c2=O)cc1 | OVCAR-5 ovarian | 113% (inactive) |
| Nc1ccc(S(=O)(=O)c2ccc(Cl)cc2)cc1 | OVCAR-5 ovarian | 90.1% (inactive) |
| CNC(=O)c1cc(Oc2ccc3c(c2)sc2nc(-c4ccc(Cl)cc4)cn23)ccn1 | OVCAR-5 ovarian | 113% (inactive) |
| COc1ccc(-c2nnc(COc3ccc(NC(=O)Nc4ccc(Cl)c(C(F)(F)F)c4)cc3F)o2)cc1 | OVCAR-5 ovarian | 8.75% (active) |

Batch: growth for all items listed.
1. NC(CC(N)C(=O)O)C(=O)O (stereo not drawn)
2. CC/C=C\C/C=C\C[C@H]1C/C=C2/C(=O)C=C[C@H]2C/C=C\CCC(=O)O1

Completion:
97% (inactive)
25.4% (inactive)

----------
Test system: HOP-92 NSCLC
Test: NCI-60 one-dose screen, 48 h (100 = growth as untreated, 0 = no growth, -100 = all killed)
Settings: 10 µM unless noted
Protocol: Growth inhibition of the HOP-92 human Non-Small Cell Lung tumor cell line is measured as a screen for anti-cancer activity. Cells are grown in 96 well plates and exposed to the test compound for 48 hours. Compounds are tested at a single concentration, which is 10^-5 M for most compounds. The reported endpoint is percent growth (GI% or GIPRCNT), where numbers from 0 - 100% represent growth inhibition, and numbers from -100% - 0 represent cell death. […]
The panel holds about 83,000 compounds, 20% with a hit somewhere; the sample as a whole holds those more often.
# Satisfied = growth below 60% (exclusive); Not satisfied = growth at/above 60%

| molecule | assigned.label |
| --- | --- |
| CC(C)(C)OC(=O)N1C/C(=C\c2cccs2)C(=O)/C(=C/c2cccs2)C1 | Not satisfied |
| CC(=O)OC[Si](C)(C)c1ccccc1 | Not satisfied |
| COc1ccc(C2CC(c3cccs3)=NN2c2ccc(S(=O)(=O)NC(=O)Nc3ccc(C)cc3)cc2)cc1 (centres undefined) | Not satisfied |

Turning now to a further record.
Prompt: Is 60% strictly greater than the molecule's reported growth? molecule: "CC[C@H](C)[C@H]1NC(=O)[C@@H](N[C@](C)(O)[C@@H](N)CC(C)C)[C@@H](C)OC(=O)[C@H](Cc2ccc(OC)cc2)N(C)C(=O)[C@@H]2CCCN2C(=O)[C@H](CC(C)C)NC(=O)[C@@H](C)C(=O)[C@H](C(C)C)OC(=O)C[C@@H]1O"
Completion: Satisfied
